Each entry below carries its reported hCRHR1-Luc 0.5 nM CRH IC50.
Biological target: T1, corticotropin-releasing hormone (CRH) peptide (human and mouse, UniProt P01143 145-185 (rat entry), not fully specified)
T1 peptide: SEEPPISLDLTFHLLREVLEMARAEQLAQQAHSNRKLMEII
Experiment: cell-based or functional assay
# unit: nM | format: bare number

Worked set:
BINDER	hCRHR1-Luc 0.5 nM CRH IC50 [nM]
PR302309-18 (antibody, human IgG1, kappa, V domains shown) VH: QVQLVQSGAEVKKPGASVKVSCKASGYTFTNYGMNWVRQAPGQRLEWMGWINTYTGEPIYTDDFKGRVTITRDTSASTAYMELSSLRSEDTAVYYCARSTMITTGGVFAYWGQGTLVTVSS VL: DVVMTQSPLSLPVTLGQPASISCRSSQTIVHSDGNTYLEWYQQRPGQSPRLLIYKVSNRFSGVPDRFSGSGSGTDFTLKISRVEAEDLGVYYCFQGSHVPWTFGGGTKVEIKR	1.73
PR302309-3 (antibody, human IgG1, kappa, V domains shown) VH: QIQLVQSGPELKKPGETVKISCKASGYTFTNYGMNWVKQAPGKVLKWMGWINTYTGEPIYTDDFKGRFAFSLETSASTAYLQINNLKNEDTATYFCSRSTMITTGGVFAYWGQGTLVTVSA VL: DIVMTQTPLSLSVTPGQPASISCRSSQTIVHSDGNTYLEWYLQKPGQSPQLLIYKVSNRFSGVPDRFSGSGSGTDFTLKISRVEAEDVGVYYCFQGSHVPWTFGGGTKVEIKR	2.22

Now for the binder whose hCRHR1-Luc 0.5 nM CRH IC50 we want.
// hCRHR1-Luc 0.5 nM CRH IC50 lookup, binder = PR302309-21 (antibody, human IgG1, kappa, V domains shown) VH: QIQLVQSGAEVKKPGASVKVSCKASGYTFTNYGMNWVRQAPGQRLEWMGWINTYTGEPIYTDDFKGRVTITLDTSASTAYMELSSLRSEDTAVYYCSRSTMITTGGVFAYWGQGTLVTVSS VL: DVVMTQTPLSSPVTLGQPASISCRSSQTIVHSDGNTYLEWYQQRPGQPPRLLIYKVSNRFSGVPDRFSGSGAGTDFTLKISRVEAEDLGVYYCFQGSHVPWTFGGGTKVEIKR , result: 8.44
